# tested-system: human TRPA1 (Homo sapiens, UniProt O75762)
# Construct: expressed in transfected cells; host or cells: Human embryonic kidney-derived 293T cells, transiently transfected with the pcDNA3.1/zeo(+) human TRPA1 plasmid
# Sequence (O75762 whole entry): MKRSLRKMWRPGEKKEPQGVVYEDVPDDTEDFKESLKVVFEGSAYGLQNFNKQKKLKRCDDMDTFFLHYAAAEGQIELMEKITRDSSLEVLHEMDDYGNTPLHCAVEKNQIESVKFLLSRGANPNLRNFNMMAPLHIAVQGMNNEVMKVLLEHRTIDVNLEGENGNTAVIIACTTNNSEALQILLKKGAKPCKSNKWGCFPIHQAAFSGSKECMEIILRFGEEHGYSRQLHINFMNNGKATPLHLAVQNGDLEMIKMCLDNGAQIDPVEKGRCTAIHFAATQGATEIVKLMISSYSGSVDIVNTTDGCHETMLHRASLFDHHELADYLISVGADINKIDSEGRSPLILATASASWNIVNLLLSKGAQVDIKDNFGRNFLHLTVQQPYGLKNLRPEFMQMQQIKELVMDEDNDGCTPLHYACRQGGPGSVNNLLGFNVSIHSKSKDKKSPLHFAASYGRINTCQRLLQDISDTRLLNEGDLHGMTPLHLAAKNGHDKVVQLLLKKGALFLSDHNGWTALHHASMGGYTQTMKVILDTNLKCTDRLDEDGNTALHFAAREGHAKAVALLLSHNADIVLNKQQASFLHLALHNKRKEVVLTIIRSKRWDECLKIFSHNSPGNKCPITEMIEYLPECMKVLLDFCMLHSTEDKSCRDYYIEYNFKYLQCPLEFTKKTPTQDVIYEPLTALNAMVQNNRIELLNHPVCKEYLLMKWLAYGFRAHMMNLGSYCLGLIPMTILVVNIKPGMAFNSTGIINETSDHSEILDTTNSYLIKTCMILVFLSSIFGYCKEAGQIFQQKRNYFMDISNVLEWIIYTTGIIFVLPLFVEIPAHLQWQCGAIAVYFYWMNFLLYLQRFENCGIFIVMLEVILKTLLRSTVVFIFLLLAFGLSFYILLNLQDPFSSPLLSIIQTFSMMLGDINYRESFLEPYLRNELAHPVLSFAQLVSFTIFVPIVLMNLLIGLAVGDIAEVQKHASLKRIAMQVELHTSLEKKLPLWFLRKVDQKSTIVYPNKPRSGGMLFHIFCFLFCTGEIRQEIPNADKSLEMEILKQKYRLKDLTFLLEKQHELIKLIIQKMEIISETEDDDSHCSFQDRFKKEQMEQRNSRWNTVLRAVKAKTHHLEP
# test-name: Measurement of TRPA1 antagonist activity (intracellular calcium increase, FLIPR, allylisothiocyanate stimulation)
# Type: cell-based
# measurement-parameters: allylisothiocyanate 20 μM stimulation, FLIPR calcium assay; read-out: antagonism hTRPA1
measure: IC50 (nM)

// solved cases for IC50 follow
>>> measurement("O=C(NCc1cccc(Oc2ccnc(C(F)(F)F)c2)c1)[C@@H]1CCCN1S(=O)(=O)c1ccc(F)cc1")
570
>>> measurement("O=C(NCc1cccc(OCc2ccc(C(F)(F)F)cc2)c1)[C@@H]1C[C@@H](O)CN1S(=O)(=O)c1ccc(F)cc1")
290
>>> measurement("O=C(NCc1cccc(Oc2ccc(C(F)(F)F)cc2)c1)[C@@H]1CCCN1S(=O)(=O)c1ccc(F)c(F)c1")
60
>>> measurement("O=C(NCc1cccc(OCc2ccc(C(F)(F)F)cc2)c1)[C@@H]1CCCN1S(=O)(=O)c1cccnc1")
120
>>> measurement("O=C(NCc1cccc(OCc2ccc(C(F)(F)F)cc2)c1)[C@@H]1CCCN1S(=O)(=O)c1ccc(F)cc1")
27
>>> measurement("O=C(NCc1ccc(Oc2cccc(C(F)(F)F)c2)cc1)[C@@H]1CCCN1S(=O)(=O)c1ccoc1")
310
>>> measurement("CN(C)c1cccc(COc2cccc(CNC(=O)[C@@H]3CCCN3S(=O)(=O)c3ccc(F)cc3)c2)c1")
38
>>> measurement("O=C(NCc1cccc(OCc2ccccc2F)c1)[C@@H]1CCCN1S(=O)(=O)c1ccc(F)cc1")
120

1: O=C(NCc1cccc(OCc2ccc(C(F)(F)F)cc2)c1)[C@@H]1C[C@@H]2C[C@@H]2N1S(=O)(=O)c1ccc(F)cc1
2: O=C(NCc1cccc(Oc2ccc(C(F)(F)F)cc2)c1)[C@@H]1CCCN1S(=O)(=O)c1ccco1
3: O=C(NCc1cccc(Oc2ccc(C(F)(F)F)cc2)c1)[C@@H]1CC(F)(F)CN1S(=O)(=O)c1ccc(F)cc1
4: O=C(NCc1ccc(Oc2ccnc(C(F)(F)F)c2)cc1)[C@@H]1CCCN1S(=O)(=O)c1ccco1
Order the records, beginning with the lowest IC50 and ending with the highest. Provide your answer as the labels ordered per the instruction. 1, 2, 3, 4
(1: 49 nM, 2: 100 nM, 3: 210 nM, 4: 5700 nM)

A: O=C(NCc1cccc(Oc2ccc(C(F)(F)F)cc2)c1)[C@@H]1C[C@H](F)CN1S(=O)(=O)c1ccc(F)cc1
B: O=C(NCc1cccc(OCc2cccc(N3CCOCC3)c2)c1)[C@@H]1CCCN1S(=O)(=O)c1ccc(F)cc1
Endpoint returns whichever of A and B has the numerically higher IC50. Answer format: the label of the selected item. A
(A: 840 nM, B: 130 nM)

---

# tested-system: human TRPA1 (Homo sapiens)
# Construct: expressed in transfected cells; host or cells: Human embryonic kidney-derived 293T cells, transiently transfected with the pcDNA3.1/zeo(+) human TRPA1 plasmid
# test-name: Measurement of TRPA1 antagonist activity (intracellular calcium increase, FLIPR, allylisothiocyanate stimulation)
# Format: cell-based
# measurement-parameters: allylisothiocyanate 20 μM stimulation, FLIPR calcium assay; read-out: antagonism hTRPA1
pIC50: −log10 of the molar value.
measure: pIC50

>>> measurement("O=C(NCc1cccc(OCc2ccc(C(F)(F)F)cc2)c1)[C@@H]1[C@H]2C[C@H]2CN1S(=O)(=O)c1ccc(F)cc1 [Example 171]")
5.72
>>> measurement("O=C(NCc1cccc(OCc2cncc(C(F)(F)F)c2)c1)[C@@H]1CCCN1S(=O)(=O)c1ccc(F)cc1 [Example 137]")
7.36
>>> measurement("O=C(NCc1cccc(OCc2ccnc(C(F)(F)F)c2)c1)[C@@H]1CCCN1S(=O)(=O)c1ccc(F)cc1 [Example 135]")
7.17
>>> measurement("O=C(NCc1cccc(OCc2cccnc2)c1)[C@@H]1CCCN1S(=O)(=O)c1ccc(F)cc1 [Example 132]")
5.59
>>> measurement("O=C(NCc1cccc(OCCc2ccccc2)c1)[C@@H]1CCCN1S(=O)(=O)c1ccc(F)cc1 [Example 148]")
6.47

A: O=C(NCc1cccc(OCc2ccc(C(F)(F)F)cc2)c1)[C@@H]1CCCN1S(=O)(=O)c1ccoc1 [Example 177]
B: O=C(NCc1cccc(OCc2ccc(C(F)(F)F)cc2)c1)[C@@H]1C[C@@H](F)CN1S(=O)(=O)c1ccc(F)cc1 [Example 165]
C: CC(=O)c1ccc(S(=O)(=O)N2CCC[C@H]2C(=O)NCc2cccc(OCc3ccc(C(F)(F)F)cc3)c2)cc1 [Example 195]
D: CC(C)(C)c1ccc(Oc2cccc(CNC(=O)[C@@H]3CCCN3S(=O)(=O)c3ccc(F)cc3)c2)cc1 [Example 119]
E: O=C(NCc1cccc(OCc2ccc(C(F)(F)F)cc2)c1)[C@@H]1[C@@H](O)CCN1S(=O)(=O)c1ccc(F)cc1 [Example 167]
// ascending sort on recorded pIC50 Return value: ordered labels per request. C, D, E, B, A
(C: 5.77, D: 6.00, E: 6.62, B: 6.82, A: 7.57)

I: Cc1ccc(S(=O)(=O)N2CCC[C@H]2C(=O)NCc2cccc(OCc3ccc(C(F)(F)F)cc3)c2)o1 [Example 203]
II: O=C(NCc1cccc(OCc2ccc(Cl)cc2)c1)[C@@H]1CCCN1S(=O)(=O)c1ccc(F)cc1 [Example 120]
Would you let me know which has the greater pIC50 value, I or II ? // caller expects the label of the chosen entry II
(II: 7.77, I: 6.77)

---

# tested-system: human TRPA1 (Homo sapiens)
# Construct: expressed in transfected cells; host or cells: Human embryonic kidney-derived 293T cells, transiently transfected with the pcDNA3.1/zeo(+) human TRPA1 plasmid
# test-name: Measurement of TRPA1 antagonist activity (intracellular calcium increase, FLIPR, allylisothiocyanate stimulation)
# Assay type: cell-based
# measurement-parameters: 293T cells transfected with human TRPA1; allylisothiocyanate 20 μM; concentration for 50% inhibitory rate; read-out: antagonism hTRPA1
pIC50: −log10 of the molar value.
measure: pIC50

Some solved entries appear below for comparison.
>>> measurement("O=C(NCc1ccc(COc2cccc(C(F)(F)F)c2)cc1C(F)(F)F)[C@@H]1CCCN1S(=O)(=O)c1ccc(Cl)s1 [Example 78]")
6.92
>>> measurement("O=C(NCc1ccc(Oc2ccc(Cl)cc2)cc1)[C@@H]1CCCN1S(=O)(=O)c1ccc(Cl)s1 [Example 4]")
7.00
>>> measurement("O=C(NCc1ccc(Oc2ccc(F)c(Cl)c2)cc1)[C@@H]1CCCN1S(=O)(=O)c1ccc(Cl)s1 [Example 11]")
6.70
>>> measurement("O=C(NCc1nc(COc2cccc(C(F)(F)F)c2)cs1)[C@@H]1CCCN1S(=O)(=O)c1ccc(Cl)s1 [Example 89]")
6.47
>>> measurement("O=C(NCc1ccc(Oc2cccc(C(F)(F)F)c2)cc1)[C@@H]1CCCN1S(=O)(=O)c1ccc(F)cc1 [Example 30]")
6.64

A: O=C(NCc1ccc(COc2ccccc2)cc1)[C@@H]1C=CCN1S(=O)(=O)c1ccc(Cl)s1 [Example 83]
B: O=C(NCc1ccc(COc2ccc(C(F)(F)F)cc2)cc1)[C@@H]1CCCN1S(=O)(=O)c1ccc(Cl)s1 [Example 42]
Which item exceeds the other in pIC50, A or B ? Refer to your chosen entry by its label in the reply. B
(B: 6.64, A: 6.37)

---

# tested-system: human TRPA1 (Homo sapiens)
# Construct: expressed in transfected cells; host or cells: Human embryonic kidney-derived 293T cells, transiently transfected with the pcDNA3.1/zeo(+) human TRPA1 plasmid
# test-name: Measurement of TRPA1 antagonist activity (intracellular calcium increase, FLIPR, allylisothiocyanate stimulation)
# Format: cell-based
# measurement-parameters: 293T cells transfected with human TRPA1; allylisothiocyanate 20 μM; concentration for 50% inhibitory rate; read-out: antagonism hTRPA1
pIC50: −log10 of the molar value.
measure: pIC50

The following compounds have reported results that may help.
>>> measurement("O=C(NCc1cccc(COc2ccc(C(F)(F)F)cc2)c1)[C@@H]1CCCN1S(=O)(=O)c1ccc(Cl)s1")
6.57
>>> measurement("O=C(NCc1cccc(OCc2cccc(Cl)c2)c1)[C@@H]1CCCN1S(=O)(=O)c1ccc(Cl)s1")
7.82
>>> measurement("O=C(NCc1ccc(COc2cncc(Cl)c2)cc1)[C@@H]1CCCN1S(=O)(=O)c1ccc(Cl)s1")
6.14
>>> measurement("O=C(NCc1ccc(COc2cccc(C(F)(F)F)c2)cc1)[C@@H]1CCCN1S(=O)(=O)c1ccc(Cl)s1")
6.62

I: O=C(NCc1ccc(Oc2cccc(C(F)(F)F)c2)cc1)[C@@H]1C=CCN1S(=O)(=O)c1ccc(Cl)s1
II: O=C(NCc1ccc(Oc2ccccc2C(F)(F)F)cc1)[C@@H]1CCCN1S(=O)(=O)c1ccc(Cl)s1
III: CC(NC(=O)[C@@H]1CCCN1S(=O)(=O)c1ccc(Cl)s1)c1ccc(COc2ccccc2)cc1 (stereo partly drawn)
IV: O=C(NCc1cccc(Oc2ccccc2)c1)[C@@H]1CCCN1S(=O)(=O)c1ccc(Cl)s1
V: O=C(NCc1cccc(OCc2ccc(C(F)(F)F)cc2)c1)[C@@H]1C=CCN1S(=O)(=O)c1ccc(F)cc1
Rank descending by pIC50. Write out the labels following the order that was asked for. V, I, IV, II, III

I: O=C(NCc1cccc(Oc2ccccc2C(F)(F)F)c1)[C@@H]1CCCN1S(=O)(=O)c1ccc(Cl)s1
II: O=C(NCc1cccc(OCc2ccc(OC(F)(F)F)cc2)c1)[C@@H]1CCCN1S(=O)(=O)c1ccc(Cl)s1
III: O=C(NCc1cccc(Oc2ccc(C(F)(F)F)cc2)c1)[C@@H]1CCCN1S(=O)(=O)c1ccc(Cl)cc1
Place the items in sequence of falling pIC50. Your answer should be the labels, listed in the requested order. II, III, I

P: O=C(NCc1ccc(OCc2ccccc2)cc1)[C@@H]1CCCN1S(=O)(=O)c1ccc(Cl)s1
Q: O=C(NCc1ccc(COc2cccc(F)c2)cc1)[C@@H]1CCCN1S(=O)(=O)c1ccc(Cl)s1
Given the two records P and Q , choose the one whose pIC50 value is lower. Kindly state the label of the option you pick. Q
(Q: 6.64, P: 7.03)
